# STUDY TARGET: Solute carrier organic anion transporter family member 1B3 (Homo sapiens, UniProt Q9NPD5)
# Sequence (Q9NPD5 whole entry): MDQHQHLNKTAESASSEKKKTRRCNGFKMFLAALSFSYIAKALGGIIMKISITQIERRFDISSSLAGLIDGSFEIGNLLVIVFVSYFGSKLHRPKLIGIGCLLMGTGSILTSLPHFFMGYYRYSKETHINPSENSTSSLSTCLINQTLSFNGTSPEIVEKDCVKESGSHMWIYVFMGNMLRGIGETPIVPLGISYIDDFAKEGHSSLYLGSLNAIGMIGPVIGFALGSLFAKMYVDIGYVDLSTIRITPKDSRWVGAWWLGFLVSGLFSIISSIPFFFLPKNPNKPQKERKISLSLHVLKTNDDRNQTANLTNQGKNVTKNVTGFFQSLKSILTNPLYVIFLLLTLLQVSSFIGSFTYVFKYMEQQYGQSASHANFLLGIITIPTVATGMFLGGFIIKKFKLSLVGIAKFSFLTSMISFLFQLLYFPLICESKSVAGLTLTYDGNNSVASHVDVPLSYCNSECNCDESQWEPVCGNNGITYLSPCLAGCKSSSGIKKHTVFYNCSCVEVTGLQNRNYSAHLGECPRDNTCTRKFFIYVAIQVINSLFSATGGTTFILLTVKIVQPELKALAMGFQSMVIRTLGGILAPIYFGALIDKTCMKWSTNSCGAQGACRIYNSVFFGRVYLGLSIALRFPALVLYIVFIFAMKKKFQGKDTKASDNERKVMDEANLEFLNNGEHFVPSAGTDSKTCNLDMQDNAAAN
# CONDITIONS: chinese hamster, cho, 10 µM
Residues, ends and D or L forms follow the SMILES beside them.
PROPERTY NAME: residual activity

Consider the compound shown here: Cl.c1ccc2c(CC3=NCCN3)cccc2c1 [NAPHAZOLINE HYDROCHLORIDE] What is its recorded residual activity?
95.85%

Thanks! And NCCCC[C@H](N)C(=O)N[C@@H](Cc1ccccc1)C(=O)N[C@@H](Cc1ccc(O)cc1)C(=O)O [LYSYLPHENYLALANYLTYROSINE] (H-Lys-Phe-Tyr-OH) ?
112.2%

Thanks! And CN(C)c1ccc(O)c2c1C[C@H]1C[C@H]3[C@H](N(C)C)C(O)=C(C(N)=O)C(=O)[C@@]3(O)C(O)=C1C2=O.Cl [MINOCYCLINE HYDROCHLORIDE] ?
96.34%

Thanks! And C[C@H](CCC(=O)O)[C@H]1CC[C@H]2[C@@H]3[C@@H](O)C[C@@H]4C[C@H](O)CC[C@]4(C)[C@H]3CC[C@]12C [URSODIOL] ?
149.7%

Thanks! And COc1cc(OC)c2c(=O)c(-c3ccc4c(c3)OCO4)coc2c1 [DERRUSTONE] ?
94.69%

More entries:
Consider the compound shown here: CCCc1ncc(C[n+]2ccccc2C)c(N)n1 [AMPROLIUM ION] What is its recorded residual activity?
78.02%

Thanks! And O=C(CCCCC(=O)Nc1c(I)cc(I)c(C(=O)O)c1I)Nc1c(I)cc(I)c(C(=O)O)c1I [IODIPAMIDE] ?
60.87%

Thanks! And O=c1cc(CO)occ1O [KOJIC ACID] ?
80.38%

Thanks! And O=C1CCCN1CC#CCN1CCCC1 [OXOTREMORINE] ?
82.72%

Thanks! And Cn1c([N+](=O)[O-])cnc1COC(N)=O [RONIDAZOLE] ?
88.05%

Thanks! And CC(C)N1C(=O)c2ccccc2NS1(=O)=O [BENTAZON] ?
96.3%

Thanks! And COc1ccc(C2COc3cc(O)ccc3C2)c(OC)c1O (racemic) [MUCRONULATOL(+/-)] ?
87.73%

Thanks! And Sc1nc2ccccc2s1 [2-MERCAPTOBENZOTHIAZOLE] ?
97.95%

Thanks! And COc1ccc(-c2c(OC)c3c(OC)c4c(cc3oc2=O)OC(C)(C)C=C4)cc1 [ROBUSTIC ACID METHYL ETHER] ?
140.2%

Thanks! And Cc1c(Cl)cccc1Nc1ccccc1C(=O)O [TOLFENAMIC ACID] ?
77.01%

Thanks! And O=C(O[C@@H]1Cc2c(O)cc(O)cc2O[C@@H]1c1cc(O)c(O)c(O)c1-c1c([C@H]2Oc3cc(O)cc(O)c3C[C@H]2O)cc(O)c(O)c1O)c1cc(O)c(O)c(O)c1 [2',2'-BISEPIGALLOCATECHIN MONOGALLATE] ?
18.79%

Thanks! And Cc1ccc(Cl)c(Nc2ccccc2C(=O)[O-])c1Cl.O.[Na+] [MECLOFENAMATE SODIUM] ?
87.03%

* * *

# STUDY TARGET: UniProt Q9NPD5
# CONDITIONS: chinese hamster, cho, 10 µM
PROPERTY NAME: residual activity (%)
Express the result in % but write the number alone.

Consider the compound shown here: CC(=O)O.CSC(=N)NCCC[C@H](N)C(=O)O [S-METHYL-L-THIOCITRULLINE ACETATE] What is its recorded residual activity?
107

Thanks! And CCOC(=O)C(C)(C)Oc1ccc(Cl)cc1 [CLOFIBRATE] ?
127.7

Thanks! And C=CCN1CC[C@]23c4c5ccc(O)c4O[C@H]2C(=O)CC[C@@]3(O)[C@H]1C5.Cl [NALOXONE HYDROCHLORIDE] ?
113.7

More entries:
Consider the compound shown here: CC(C)=CCC1=C(O)C(=O)c2ccccc2C1=O What is its recorded residual activity?
108.2

Thanks! And CCN1CCCC(OC(=O)C(c2ccccc2)c2ccccc2)C1.Cl (stereo not drawn) [PIPERIDOLATE HYDROCHLORIDE] ?
96

Thanks! And COc1ccc(-c2c(O)c3c(OC)c4c(cc3oc2=O)OC(C)(C)CC4)cc1 [DIHYDROROBUSTIC ACID] ?
70.94

Thanks! And C[C@H]1C(=O)CC[C@@H]2[C@]1(C)CC[C@H]1[C@@]2(C)CC[C@@]2(C)[C@@H]3CC(C)(C)CC[C@]3(C)CC[C@]12C ?
90.31

Thanks! And Cc1cc(O)cc(C)c1Cl ?
121.1

* * *

# STUDY TARGET: Solute carrier organic anion transporter family member 1B3 (Homo sapiens)
# Sequence (Q9NPD5 whole entry): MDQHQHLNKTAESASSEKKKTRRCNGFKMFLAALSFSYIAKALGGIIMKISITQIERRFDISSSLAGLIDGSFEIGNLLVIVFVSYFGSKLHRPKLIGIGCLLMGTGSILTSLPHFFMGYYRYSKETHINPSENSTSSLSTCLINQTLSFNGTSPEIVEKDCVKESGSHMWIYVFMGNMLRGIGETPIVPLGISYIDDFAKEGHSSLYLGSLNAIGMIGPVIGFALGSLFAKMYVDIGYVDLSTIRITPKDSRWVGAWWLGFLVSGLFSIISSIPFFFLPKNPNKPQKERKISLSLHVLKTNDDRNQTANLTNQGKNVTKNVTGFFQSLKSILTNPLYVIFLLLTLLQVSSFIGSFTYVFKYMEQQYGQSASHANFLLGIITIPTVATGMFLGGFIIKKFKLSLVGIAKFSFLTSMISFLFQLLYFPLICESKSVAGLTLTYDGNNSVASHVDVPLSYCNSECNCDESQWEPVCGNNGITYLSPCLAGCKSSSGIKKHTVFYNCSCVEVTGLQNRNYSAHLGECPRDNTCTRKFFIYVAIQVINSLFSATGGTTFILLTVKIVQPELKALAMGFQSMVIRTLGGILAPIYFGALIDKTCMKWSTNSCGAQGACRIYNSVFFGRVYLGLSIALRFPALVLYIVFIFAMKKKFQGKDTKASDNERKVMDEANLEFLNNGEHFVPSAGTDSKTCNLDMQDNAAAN
# CONDITIONS: chinese hamster, cho, 10 µM
Kind request: treat 90% as inclusive, so residual activity at 90% or higher is satisfied, anything lower is not satisfied.

Below, 5 compounds whose answers are already recorded.
Is residual activity at least 90%? Consider COC(=O)COc1ccc(Cl)cc1Cl
satisfied

Thanks! And Cc1cc(=O)c2c(O)c3c(cc2o1)OC(C)(C)CC3 [DIHYDROSPATHELIACHROMENE] ?
satisfied

Thanks! And CC[C@@]1([C@H]2O[C@H]([C@H]3O[C@@](O)(CO)[C@H](C)C[C@@H]3C)C[C@H]2C)CC[C@H]([C@@]2(C)CC[C@]3(C[C@H](O)[C@@H](C)[C@@H]([C@H](C)[C@H](OC)[C@@H](C)C(=O)[O-])O3)O2)O1.[Na+] [MONENSIN SODIUM] ?
not satisfied

Thanks! And COc1cc(C)c2c(c1C=O)Oc1c(c(C)c(O)c3c1C(O)OC3=O)OC2=O (centres undefined) ?
not satisfied

Thanks! And C=C1C(=O)O[C@H]2C[C@@H]1C(OC(C)=O)C/C(C)=C/CC/C(C)=C/CC[C@@]2(C)O (some centres undefined) [CRASSIN ACETATE] ?
not satisfied

More entries:
Is residual activity at least 90%? Consider COC(=O)[C@]1(C)CC[C@]2(C)CC[C@]3(C)C4=CCc5c(cc(OC(C)=O)c(OC(C)=O)c5C)[C@]4(C)CC[C@@]3(C)[C@@H]2C1 [PRISTIMEROL DIACETATE]
not satisfied

Thanks! And CC(=O)Oc1cc(-c2coc3cc(OC(C)=O)c(OC(C)=O)c(OC(C)=O)c3c2=O)cc(OC(C)=O)c1OC(C)=O [IRIGINOL HEXAACEATATE] ?
satisfied

Thanks! And CCCCCCCCNC(C)C(O)c1ccc(SC(C)C)cc1 (centres undefined) ?
satisfied

Thanks! And CCCCCCNC(=O)n1cc(F)c(=O)[nH]c1=O ?
satisfied

Thanks! And Cc1cc(/C=C/c2ccc3cc(N(C)C)ccc3[n+]2C)c(C)n1-c1ccccc1.Cc1cc(/C=C/c2ccc3cc(N(C)C)ccc3[n+]2C)c(C)n1-c1ccccc1.O=C([O-])c1cc2ccccc2c(Cc2c(O)c(C(=O)[O-])cc3ccccc23)c1O [PYRVINIUM PAMOATE] ?
not satisfied

Thanks! And CN(C)CCOC(C)(c1ccccc1)c1ccccn1.O=C(O)CCC(=O)O (centres undefined) [DOXYLAMINE SUCCINATE] ?
satisfied

Thanks! And Clc1ccc(CSC(Cn2ccnc2)c2ccc(Cl)cc2Cl)cc1.O=[N+]([O-])O (centres undefined) [SULCONAZOLE NITRATE] ?
satisfied

Thanks! And CC(=O)[C@H]1CC[C@H]2[C@@H]3CC=C4C[C@@H](O)CC[C@]4(C)[C@H]3CC[C@]12C ?
satisfied

The reported numbers originate from ChEMBL document CHEMBL3039007.
